Header: pKi / 5-hydroxytryptamine receptor 2A (Homo sapiens, UniProt P28223) / multiple publications
pKi: −log10 of the molar value.
Quick rule for you: pKi at 7 or higher means satisfied, lower means not satisfied.

Identify whether the reported pKi of the following molecule is 7 or greater: Cc1ncccc1Oc1ccc(NC(=O)N2CCc3c(Br)cccc32)cn1
not satisfied

Identify whether the reported pKi of the following molecule is 7 or greater: O=C(NC/C=C/CN1CCN(c2cccc(Cl)c2Cl)CC1)c1ccc2c(c1)Cc1ccccc1-2
not satisfied

Identify whether the reported pKi of the following molecule is 7 or greater: CCCN(CCNC(=O)/N=N/c1cc(F)c(F)c(F)c1)C1Cc2ccccc2C1
not satisfied

Identify whether the reported pKi of the following molecule is 7 or greater: O=C(CCCN1CCN(c2ccccc2)CC1)c1nc2ccccc2s1
not satisfied

Identify whether the reported pKi of the following molecule is 7 or greater: N#Cc1cnn2ccc(OCCCCN3CCN(c4cccc(Cl)c4Cl)CC3)cc12
not satisfied

Identify whether the reported pKi of the following molecule is 7 or greater: CN(C)CCSc1nc(-c2ccncc2)cs1
not satisfied

Identify whether the reported pKi of the following molecule is 7 or greater: O=C1CC(CN2CCC(c3noc4cc(F)ccc34)CC2)Cc2ccccc21 (stereo in doubt; (+)-7d)
satisfied

Identify whether the reported pKi of the following molecule is 7 or greater: COc1cc2c(cc1OC)C(=O)CC(CN1CCC(c3noc4cc(F)ccc34)CC1)C2 (stereo in doubt; (-)-9d)
satisfied

Identify whether the reported pKi of the following molecule is 7 or greater: Cc1ccc2c(OCCN3CCC(Cc4ccc5c(c4F)NC(=O)CO5)CC3)cc(F)cc2n1
not satisfied

Identify whether the reported pKi of the following molecule is 7 or greater: COc1ccc(N2CC=C(c3ccc(Cl)c(Cl)c3)C2=O)cc1OCCN1CCC(C)CC1
not satisfied

Identify whether the reported pKi of the following molecule is 7 or greater: CN1CCc2ccc3c4c2[C@H]1Cc1cccc(c1-4)[C@@H]3N
not satisfied

Identify whether the reported pKi of the following molecule is 7 or greater: O=C1CCc2ccc(OCCCCN3CCN(c4cccc(C(F)(F)F)c4Cl)CC3)nc2N1
satisfied

* * *

Header: Ki / UniProtKB P28223 / multiple publications
Values of Ki strictly less than 300 nM map to Condition met, and values of at least 300 nM map to Condition not met.

# strict comparison: is reported Ki < 300 nM? input = Cl.Cl.c1ccc2c(c1)CCN(CCCc1nc3ccccc3[nH]1)C2
Condition not met

# strict comparison: is reported Ki < 300 nM? input = Cc1cccc(-c2ccc(C(=O)NC/C=C/CN3CCN(c4cccc(Cl)c4Cl)CC3)cc2)n1
Condition met

# strict comparison: is reported Ki < 300 nM? input = CC(=O)c1c(C)cc2oc(=O)cc(C)c2c1OCCCN1CCN(c2cnccn2)CC1
Condition not met

# strict comparison: is reported Ki < 300 nM? input = O=C(Nc1ccc(OCc2ccccn2)nc1)N1CCc2cc(Cl)ccc21
Condition not met

# strict comparison: is reported Ki < 300 nM? input = COc1c(O)ccc2c1CN1CCc3cc4c(cc3[C@@H]1C2)OCC4
Condition not met

# strict comparison: is reported Ki < 300 nM? input = CCCCNCc1ccc(Cl)c(-c2ccccc2OC)c1
Condition met

# strict comparison: is reported Ki < 300 nM? input = CC1(c2ccccc2)C(=O)Nc2cc(Cl)cc(Cl)c2C1=O (racemic)
Condition not met

# strict comparison: is reported Ki < 300 nM? input = O=C(CCCN1CC[C@H]2[C@@H](C1)c1cccc3c1N2CCS3)c1ccc(F)cc1
Condition met

# strict comparison: is reported Ki < 300 nM? input = c1ccc(C2CCN(CC3C[C@@H]4c5ccccc5Sc5ccccc5[C@H]4O3)CC2)cc1 (stereo not given in full)
Condition met

# strict comparison: is reported Ki < 300 nM? input = O=S(=O)(c1cccc2ccccc12)N1CCC(CCc2ccc(F)cc2F)CC1
Condition met
